Below, each entry is listed alongside its reported viability at 24 h.
Test: Cytotoxicity, commercial modification of the MTT assay
Format: cell-based, porcine
Set-up: dose or concentration left out as unconfirmed
Conditions: pig

Compound String	viability at 24 h (%)
COc1ccc2[nH]c(C=Cc3ccc(OC)c(OC)c3)nc2c1	100
COc1ccc(/C=C/c2nc3ccccc3[nH]2)cc1OC	100
O=[N+]([O-])c1ccc2[nH]c(/C=C/c3ccncc3)nc2c1	45
COc1ccc(C=Cc2nc3c(OC)c(C)c(C)c(OC)c3[nH]2)cc1OC	100
COC(=O)c1ccc(Cn2c(C=Cc3ccc(OC)c(OC)c3)nc3c(OC)c(C)c(C)c(OC)c32)cc1	80
COc1ccc(/C=C/c2nc3cc([N+](=O)[O-])ccc3[nH]2)cc1OC	100
COc1ccc(/C=C/c2nc3cc(C(=O)O)ccc3[nH]2)cc1OC	100
COC(=O)c1ccc2[nH]c(/C=C/c3ccc(OC)c(OC)c3)nc2c1	100
